From: PubChem BioAssay (NCI)

- System: ACHN renal
- PROTOCOL_TEXT: NCI tumour cell line growth inhibition, 48 h
ASSAY_READOUT: TGI (µM)
One number for each entry, in µM.

The cases that follow already have their TGI on record.
O=C(/C=C/c1cccc(B(O)O)c1)c1cccc(B(O)O)c1    4.33
CSc1ccc(C2=NN(C(=O)c3ccc(N)cc3)C(c3ccc(F)cc3)C2)cc1 (stereo not given)    19.7
FC(F)(F)C1(C(F)(F)F)C2CCC3(CC(F)(F)C(F)(F)S3)C1C2 (stereo not given)    98.5

Kindly review the next molecule as well.
Prompt: Find the recorded TGI belonging to CCNCCNc1cc(-c2cccc(C(F)(F)F)c2)c(C#N)c2nc3ccccc3n12 and report it.
Response: 2.9
